system: pigweed (Amaranthus retroflexus); experiment: Test A pre-/postemergence: pigweed; type: in vivo; settings: Preemergence, 500 g ai/ha; 0 to 100 scale, 0 is no effect, 100 is complete control
Please note: Plant response rating, Pigweed exactly at 90 is label 0. Only values below 90 get label 1.

Reference set, count: 3
entry_smiles | label
Cc1nn(-c2ccc(C(F)(F)F)cc2)nc1Sc1cccc(C(F)(F)F)c1 | label 1
Cc1nn(-c2cccc(C(F)(F)F)c2)nc1Oc1cc(C(F)(F)F)nn1C | label 1
Fc1ccc(-n2nc(Cc3ccnc(C(F)(F)F)c3)c(OC(F)F)n2)cc1 | label 0

Shifting focus to the compound that follows.
[Q] Please state whether Plant response rating, Pigweed is below 90 for Cc1nn(-c2ccc(C(F)(F)F)cc2)nc1Oc1cccc(Cl)c1
[A] label 1
